- Test system: HCT-116 colon
- assay method text: NCI tumour cell line growth inhibition, 48 h
Where a SMILES comes first, the peptide text is derived from it. [ ]: non-standard residue; d: D form. The star is where a group is joined. ξ: configuration not given here. ξF = NC(Cc1ccccc1)C(=O)O; Cbz = O=C(OCc1ccccc1)*
metric: TGI

Data request: What value of measured TGI is listed for Cc1ccc(OCC2OC(n3cnc4c(Cl)nc(Nc5cc(Cl)cc(Cl)c5)nc43)CC2Oc2ccc(C)cc2)cc1 (stereo not given) ?
Data returned: > 100 µM

Data request: Would you kindly repeat that for O=[N+]([O-])c1ccc(-c2ccc(C3=Nn4c(CNc5ccccc5Cl)nnc4SC3)o2)cc1 ?
Data returned: > 100 µM

Data request: Same read-out for O=[N+]([O-])c1cccc2nc3ccccc3c(NCCCCCNc3c4ccccc4nc4cccc([N+](=O)[O-])c34)c12 ?
Data returned: 0.0346 µM

Data request: Subsequent entry: CC(=O)c1ccc(Nc2c3c(nc4ccccc24)CCCC3)cc1
Data returned: > 72 µM

Data request: Same for COC1(OC)CCc2c(sc3ncnc(Nc4cccc(Br)c4)c23)C1
Data returned: > 100 µM

Data request: Next up: CSCCC(C(=O)O)N(C)C (stereo not given)
Data returned: > 100 µM

Data request: CSc1nc2nc(-c3ccccc3)c(C)c-2c2n1C(C)C(=O)N2 (stereo not given) ?
Data returned: > 100 µM

Data request: Further, for S=C1Cc2c(-c3ccccc3)cc(-c3cccc(Cl)c3)nc2-c2ccccc2N1 ?
Data returned: 6.53 µM

Data request: Try the molecule [O]=[V]([OH])([OH])[OH]
Data returned: > 100 µM

Data request: Then what about the molecule C1CCC(N=C2N(C3CCCCC3)C(=NC3CCCCC3)N2C2CCCCC2)CC1 ?
Data returned: > 100 µM

Data request: Moving on to the next molecule: CCSCC1CC(O)(c2ccccc2)C(c2ccccc2)C(c2ccc(F)cc2)O1 (stereo not given)
Data returned: 3.22 µM

Data request: Please give the result for COC(=O)c1c(C)cccc1/C=C1\Cc2ccc(C)c(C)c2C1=O too.
Data returned: > 100 µM

Data request: One more molecule: NCCOc1cccc(C2(N3CCCCC3)CCCCC2)c1
Data returned: 34.4 µM

Data request: Subsequent entry: Cc1cc2nc3c(C#N)c(-c4ccccc4)/c(=C\Nc4ccc(F)cc4)c(=O)n3c2cc1C
Data returned: > 100 µM

Data request: Param item: CCOC(=O)CNC(=O)C(Cc1ccccc1)NC(=O)OCc1ccccc1 (stereo not given) (Cbz-[ξF]-Gly-OEt)
Data returned: > 100 µM

Data request: # repeat for O=C(c1cccs1)c1c(C(F)(F)F)n([O-])c2cc(Cl)c(Cl)cc2[n+]1=O
Data returned: 0.913 µM

Data request: Moving on to COc1ccc2nc3c(c(N)c2c1)C1CCC3C1(C)C (stereo not given)
Data returned: > 100 µM

Data request: What about this molecule? CC(=O)NC1C(OCC(=O)NCCNc2ccc([N+](=O)[O-])c3[nH]c4ccccc4c(=O)c23)C(O)C(CO)OC1(C)OCc1ccccc1 (stereo not given)
Data returned: > 100 µM

Data request: And for CCOC(=O)/C(=C/c1ccccn1)C(=O)c1ccccc1 ?
Data returned: 27.3 µM

Data request: And C=CCN(CC=C)C(=O)c1cc(C)nc2c1c(=O)n(-c1ccccc1)c(=O)n2CCCN1CCN(c2ccccc2OC)CC1 ?
Data returned: > 50 µM

Reference for the values: PubChem BioAssay (NCI)
